The origin of these recorded values is PubChem BioAssay AID1963439.

- Tested on: NCI-H196 complex spheroids with HUVEC/MSC, growth % T/C
- experiment.notes: Anticancer human tumor NCI-H196 cell line growth inhibition [Asc];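 also: spheroids exposed to compound for 7 days before measurement; 100% = DMSO vehicle control wells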
- condition.summary: second compound 0.0316 µM; first compound 0.01 µM; stronger effect = lower value
Could you please report measured viability, T/C for the items listed next?
Quick reminder: number only, in %, skip the unit.

For record Cn1ncnc1[C@H]1c2n[nH]c(=O)c3cc(F)cc(c23)N[C@@H]1c1ccc(F)cc1 + CNC(C)C(=O)NC1CN(S(=O)(=O)c2cccc(S(=O)(=O)N3CCC4CCC(C(=O)NC(c5ccccc5)c5ccccc5)N4C(=O)C(NC(=O)C(C)NC)C3)c2)CCC2CCC(C(=O)NC(c3ccccc3)c3ccccc3)N2C1=O the listed viability, T/C is 4.53

For record NC1CCC(NC2CC2c2ccccc2)CC1 (configuration not stated) + CNC(C)C(=O)NC1CN(S(=O)(=O)c2cccc(S(=O)(=O)N3CCC4CCC(C(=O)NC(c5ccccc5)c5ccccc5)N4C(=O)C(NC(=O)C(C)NC)C3)c2)CCC2CCC(C(=O)NC(c3ccccc3)c3ccccc3)N2C1=O the listed viability, T/C is 4.65

----------
- System: NCI-H196 complex spheroids with HUVEC/MSC, growth % T/C
- experiment.notes: Anticancer human tumor NCI-H196 cell line growth inhibition [Asc]; active means viability on the fitted dose curve at most 10% of control; inactive means the rest;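 also: spheroids exposed to compound for 7 days before measurement; 100% = DMSO vehicle control wells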
- condition.summary: second compound 0.316 µM; first compound 0.1 µM
Parameter call: string, one of active, inactive

-- ask Entry CCN1CCN(Cc2ccc(Nc3ncc(F)c(-c4cc(F)c5nc(C)n(C(C)C)c5c4)n3)nc2)CC1 + CNC(C)C(=O)NC1CN(S(=O)(=O)c2cccc(S(=O)(=O)N3CCC4CCC(C(=O)NC(c5ccccc5)c5ccccc5)N4C(=O)C(NC(=O)C(C)NC)C3)c2)CCC2CCC(C(=O)NC(c3ccccc3)c3ccccc3)N2C1=O : call = ?
-- reply active

-- ask Entry CCN1CCN(Cc2ccc(Nc3ncc(F)c(-c4cc(F)c5nc(C)n(C(C)C)c5c4)n3)nc2)CC1 + Cc1c(S(C)(=O)=O)c(-c2cc(F)cc(N3CCN(c4ccc(NS(=O)(=O)c5ccc(NC(CCN6CCC(C(=O)OCCCP(=O)(O)O)CC6)CSc6ccccc6)c(S(=O)(=O)C(F)(F)F)c5)cc4)CC3)c2)c(-c2ccc(Cl)cc2)n1C(C)C : call = ?
-- reply inactive

-- ask Entry Cn1ncnc1[C@H]1c2n[nH]c(=O)c3cc(F)cc(c23)N[C@@H]1c1ccc(F)cc1 + CNC(C)C(=O)NC1CN(S(=O)(=O)c2cccc(S(=O)(=O)N3CCC4CCC(C(=O)NC(c5ccccc5)c5ccccc5)N4C(=O)C(NC(=O)C(C)NC)C3)c2)CCC2CCC(C(=O)NC(c3ccccc3)c3ccccc3)N2C1=O : call = ?
-- reply active

----------
- Test system: NCI-H196 complex spheroids with HUVEC/MSC, growth % T/C
- experiment.notes: Anticancer human tumor NCI-H196 cell line growth inhibition [Asc];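 also: spheroids exposed to compound for 7 days before measurement; 100% = DMSO vehicle control wells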
- condition.summary: second compound 0.316 µM; first compound 1 µM; stronger effect = lower value
recorded.endpoint: viability, T/C (%)
Quick reminder: number only, in %, skip the unit.

For record C=CC(=O)N1CCN(c2nc(=O)n(-c3c(C)ccnc3C(C)C)c3nc(-c4c(O)cccc4F)c(F)cc23)C(C)C1 (centres undefined) + Cc1c(S(C)(=O)=O)c(-c2cc(F)cc(N3CCN(c4ccc(NS(=O)(=O)c5ccc(NC(CCN6CCC(C(=O)OCCCP(=O)(O)O)CC6)CSc6ccccc6)c(S(=O)(=O)C(F)(F)F)c5)cc4)CC3)c2)c(-c2ccc(Cl)cc2)n1C(C)C the listed viability, T/C is 109

For record C=C(F)C(=O)N1CCN(c2nc(OCC3CCCN3C)nc3c2CCN(c2cccc4cccc(Cl)c24)C3)CC1CC#N (centres undefined) + CNC(C)C(=O)NC1CN(S(=O)(=O)c2cccc(S(=O)(=O)N3CCC4CCC(C(=O)NC(c5ccccc5)c5ccccc5)N4C(=O)C(NC(=O)C(C)NC)C3)c2)CCC2CCC(C(=O)NC(c3ccccc3)c3ccccc3)N2C1=O the listed viability, T/C is 2.27

For record CNC(C)C(=O)NC1CN(S(=O)(=O)c2cccc(S(=O)(=O)N3CCC4CCC(C(=O)NC(c5ccccc5)c5ccccc5)N4C(=O)C(NC(=O)C(C)NC)C3)c2)CCC2CCC(C(=O)NC(c3ccccc3)c3ccccc3)N2C1=O (centres undefined) + Cc1c(S(C)(=O)=O)c(-c2cc(F)cc(N3CCN(c4ccc(NS(=O)(=O)c5ccc(NC(CCN6CCC(C(=O)OCCCP(=O)(O)O)CC6)CSc6ccccc6)c(S(=O)(=O)C(F)(F)F)c5)cc4)CC3)c2)c(-c2ccc(Cl)cc2)n1C(C)C the listed viability, T/C is 0.56

For record COc1c(OCCCN2CCOCC2)ccc2c3n(c(=NC(=O)c4cnc(N)nc4)nc12)CCN3 + Cc1c(S(C)(=O)=O)c(-c2cc(F)cc(N3CCN(c4ccc(NS(=O)(=O)c5ccc(NC(CCN6CCC(C(=O)OCCCP(=O)(O)O)CC6)CSc6ccccc6)c(S(=O)(=O)C(F)(F)F)c5)cc4)CC3)c2)c(-c2ccc(Cl)cc2)n1C(C)C the listed viability, T/C is 50.7

For record CCN1CCN(Cc2ccc(Nc3ncc(F)c(-c4cc(F)c5nc(C)n(C(C)C)c5c4)n3)nc2)CC1 + CNC(C)C(=O)NC1CN(S(=O)(=O)c2cccc(S(=O)(=O)N3CCC4CCC(C(=O)NC(c5ccccc5)c5ccccc5)N4C(=O)C(NC(=O)C(C)NC)C3)c2)CCC2CCC(C(=O)NC(c3ccccc3)c3ccccc3)N2C1=O the listed viability, T/C is 3.67

For record CCN1CCN(Cc2ccc(Nc3ncc(F)c(-c4cc(F)c5nc(C)n(C(C)C)c5c4)n3)nc2)CC1 + Cc1c(S(C)(=O)=O)c(-c2cc(F)cc(N3CCN(c4ccc(NS(=O)(=O)c5ccc(NC(CCN6CCC(C(=O)OCCCP(=O)(O)O)CC6)CSc6ccccc6)c(S(=O)(=O)C(F)(F)F)c5)cc4)CC3)c2)c(-c2ccc(Cl)cc2)n1C(C)C the listed viability, T/C is 113

For record C#Cc1c(F)ccc2cc(O)cc(-c3ncc4c(N5CC6CCC(C5)N6)nc(OCC56CCCN5CC(F)C6)nc4c3F)c12 (centres undefined) + CNC(C)C(=O)NC1CN(S(=O)(=O)c2cccc(S(=O)(=O)N3CCC4CCC(C(=O)NC(c5ccccc5)c5ccccc5)N4C(=O)C(NC(=O)C(C)NC)C3)c2)CCC2CCC(C(=O)NC(c3ccccc3)c3ccccc3)N2C1=O the listed viability, T/C is 3.63

For record O=C(c1ccc(F)c(F)c1Nc1ccc(I)cc1F)N1CC(O)([C@@H]2CCCCN2)C1 + Cc1c(S(C)(=O)=O)c(-c2cc(F)cc(N3CCN(c4ccc(NS(=O)(=O)c5ccc(NC(CCN6CCC(C(=O)OCCCP(=O)(O)O)CC6)CSc6ccccc6)c(S(=O)(=O)C(F)(F)F)c5)cc4)CC3)c2)c(-c2ccc(Cl)cc2)n1C(C)C the listed viability, T/C is 117

For record C=CC(=O)N1CCN(c2nc(=O)n(-c3c(C)ccnc3C(C)C)c3nc(-c4c(O)cccc4F)c(F)cc23)C(C)C1 (centres undefined) + CNC(C)C(=O)NC1CN(S(=O)(=O)c2cccc(S(=O)(=O)N3CCC4CCC(C(=O)NC(c5ccccc5)c5ccccc5)N4C(=O)C(NC(=O)C(C)NC)C3)c2)CCC2CCC(C(=O)NC(c3ccccc3)c3ccccc3)N2C1=O the listed viability, T/C is 3.67

For record COc1c(OCCCN2CCOCC2)ccc2c3n(c(=NC(=O)c4cnc(N)nc4)nc12)CCN3 + CNC(C)C(=O)NC1CN(S(=O)(=O)c2cccc(S(=O)(=O)N3CCC4CCC(C(=O)NC(c5ccccc5)c5ccccc5)N4C(=O)C(NC(=O)C(C)NC)C3)c2)CCC2CCC(C(=O)NC(c3ccccc3)c3ccccc3)N2C1=O the listed viability, T/C is 3.07

For record O=C(c1cc(Cc2n[nH]c(=O)c3ccccc23)ccc1F)N1CCN(C(=O)C2CC2)CC1 + Cc1c(S(C)(=O)=O)c(-c2cc(F)cc(N3CCN(c4ccc(NS(=O)(=O)c5ccc(NC(CCN6CCC(C(=O)OCCCP(=O)(O)O)CC6)CSc6ccccc6)c(S(=O)(=O)C(F)(F)F)c5)cc4)CC3)c2)c(-c2ccc(Cl)cc2)n1C(C)C the listed viability, T/C is 88.3

For record C#Cc1c(F)ccc2cc(O)cc(-c3ncc4c(N5CC6CCC(C5)N6)nc(OCC56CCCN5CC(F)C6)nc4c3F)c12 (centres undefined) + Cc1c(S(C)(=O)=O)c(-c2cc(F)cc(N3CCN(c4ccc(NS(=O)(=O)c5ccc(NC(CCN6CCC(C(=O)OCCCP(=O)(O)O)CC6)CSc6ccccc6)c(S(=O)(=O)C(F)(F)F)c5)cc4)CC3)c2)c(-c2ccc(Cl)cc2)n1C(C)C the listed viability, T/C is 97.8

For record O=C(c1ccc(F)c(F)c1Nc1ccc(I)cc1F)N1CC(O)([C@@H]2CCCCN2)C1 + CNC(C)C(=O)NC1CN(S(=O)(=O)c2cccc(S(=O)(=O)N3CCC4CCC(C(=O)NC(c5ccccc5)c5ccccc5)N4C(=O)C(NC(=O)C(C)NC)C3)c2)CCC2CCC(C(=O)NC(c3ccccc3)c3ccccc3)N2C1=O the listed viability, T/C is 3.61

For record C=C(F)C(=O)N1CCN(c2nc(OCC3CCCN3C)nc3c2CCN(c2cccc4cccc(Cl)c24)C3)CC1CC#N (centres undefined) + Cc1c(S(C)(=O)=O)c(-c2cc(F)cc(N3CCN(c4ccc(NS(=O)(=O)c5ccc(NC(CCN6CCC(C(=O)OCCCP(=O)(O)O)CC6)CSc6ccccc6)c(S(=O)(=O)C(F)(F)F)c5)cc4)CC3)c2)c(-c2ccc(Cl)cc2)n1C(C)C the listed viability, T/C is 86.4
